Target: UniProt:O00187
Assay: MASP-2 co-crystallization, X-ray crystallography and structure analysis (H-bonds, van der Waals contacts)
Details: Table A6-2 pharmacophore angle
Counter-ions that a name gives are not always drawn.
I'd be grateful if you could share measured a(O1, O2, H3) for these entries.
Give bare numbers.

Use the examples below as a reference point.
[[record]]
compound = "C[C@H](NC(=O)[C@H]1C[C@H](c2ccccc2)CN1)C(=O)NCc1ccc2c(N)nccc2c1"
number = 152.05

[[record]]
compound = "Cc1nc(N)ccc1CNC(=O)[C@H](C)NC(=O)[C@H]1C[C@@H](Cc2ccccc2)CCN1"
number = 146.74

[[record]]
compound = "C[C@H](NC(=O)[C@H](N)CCCc1ccccc1)C(=O)NCc1ccc(C(=N)N)cc1.Cl.Cl [1042_1]"
number = 149.96

[[record]]
compound = "CC(NC(=O)C(CCc1ccccc1)NCc1ccc(C(=O)N2CCOCC2)cc1)C(=O)NCc1ccc(C(=N)N)cc1.Cl.Cl (stereo not shown)"
number = 138.79

[[record]]
compound = "Cc1nc(N)ccc1CNC(=O)[C@H](C)NC(=O)[C@H]1C[C@H](Cc2ccc3ccccc3c2)CN1"
number = 148.03


For every item in the list below, what is its measured a(O1, O2, H3)?
1. Cc1nc(N)ccc1CNC(=O)[C@H](C)NC(=O)[C@H]1C[C@H](Cc2cc(Cl)cc(Cl)c2)CN1 [compound 1435, Dihydrochloride]
2. C[C@H](NC(=O)[C@H]1C[C@@H](c2ccccc2)CCN1)C(=O)NCc1cc(Cl)ccc1O.Cl [1078_10]

1. 147.24
2. 146.00

###

I'd be grateful if you could share measured Pharmacophore torsion angle a(N1, CA1, O1, H4) for these entries.
Target: MASP-2 CCP2-SP (Homo sapiens (Human), UniProt O00187)
Sequence (O00187 445-686): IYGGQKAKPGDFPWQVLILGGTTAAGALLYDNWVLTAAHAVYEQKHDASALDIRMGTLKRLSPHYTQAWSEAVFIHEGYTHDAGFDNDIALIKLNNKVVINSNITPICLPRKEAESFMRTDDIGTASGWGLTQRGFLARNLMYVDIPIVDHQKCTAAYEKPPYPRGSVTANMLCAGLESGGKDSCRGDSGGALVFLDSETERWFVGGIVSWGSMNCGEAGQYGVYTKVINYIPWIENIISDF
Sequence (O00187 364-432 partner): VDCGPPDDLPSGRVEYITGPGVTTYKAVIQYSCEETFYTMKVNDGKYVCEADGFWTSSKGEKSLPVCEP
Test: MASP-2 co-crystallization, X-ray crystallography and structure analysis (H-bonds, van der Waals contacts)
Settings: Table A7-1; between pharmacophore elements of the bound compound
Where a name gives a salt, the structure may show the parent alone.
Numbers only.

Use the examples below as a reference point.
[[record]]
compound = "Cc1nc(N)ccc1CNC(=O)[C@H](C)NC(=O)[C@H]1C[C@@H](c2cccc3ccccc23)CCN1.Cl.Cl [1297_4]"
number = 26.25

[[record]]
compound = "Cc1nc(N)ccc1CNC(=O)C(C)NC(=O)C1CC(c2cccc3ccccc23)CCN1.Cl.Cl (centres unmarked) [1297_1]"
number = 26.85


For every item in the list below, what is its measured Pharmacophore torsion angle a(N1, CA1, O1, H4)?
1. Cc1nc(N)ccc1CNC(=O)[C@H](C)NC(=O)c1cc(Cc2ccccc2)n[nH]1
2. Cc1nc(N)ccc1CNC(=O)C(C)NC(=O)[C@H]1C[C@H](c2cccc(-c3ccccc3)c2)CN1 (stereo in doubt)
3. C[C@H](NC(=O)[C@H](N)CCc1ccccc1)C(=O)NCc1ccc(N)nc1.Cl.Cl [1007_1]
4. Cc1nc(N)ccc1CNC(=O)[C@H](C)NC(=O)[C@H]1C[C@H](Cc2ccccc2)CN1
5. Cc1nc(N)ccc1CNC(=O)[C@H](C)NC(=O)[C@H]1C[C@H](Cc2cccc(-c3ccccc3)c2)CN1
6. Cc1cccc([C@H]2CN[C@@H](C(=O)N[C@@H](C)C(=O)NCc3ccc(N)nc3C)C2)c1 [compound 1257, Dihydrochloride]
7. Cc1nc(N)ccc1CNC(=O)[C@H](C)NC(=O)[C@H]1C[C@@H](c2ccccc2)CCN1CCC(=O)O [compound 1411, Trifluoroacetate salt]
8. Cc1nc(N)ccc1CNC(=O)C(C)NC(=O)C1CC(c2cccc3ccccc23)CCN1.Cl.Cl (centres unmarked) [1297_3]

[1.25, 3.34, 39.07, 5.90, "−2.51", 11.94, "−2.21", 22.83]
